# System: Mycolicibacterium smegmatis
# assay procedure: Antibacterial activity against Mycobacterium smegmatis MC2 155 under aerobic condition after 36 hrs by MTT assay
# Assay type: functional
# assay setup: str. MC2 155, 36 h
MIC listing for selected compounds.
endpoint: MIC (µg/mL)

NNC(=O)c1ccncc1 [ISONIAZID]: 2.5
Cc1cc(=O)n2c3c(c4c(cc13)c(COC(=O)CCCc1cn(CCOCCOCCOCCOCCOCCOCCOCCOCCOCCOCCNC(=O)CCCC[C@@H]3SC[C@@H]5NC(=O)N[C@@H]53)nn1)cc(=O)n4C)OC2: 25
Cc1cc(=O)n2c3c(c4c(cc13)c(CO)cc(=O)n4C)OC2: 1
